Reference source: patent US20220363665A1

# key: entry, value: solubility thermodynamic
test: LYSA solubility assay; assay type: physicochemical; settings: 0.05 M phosphate buffer, pH 6.5, aqueous buffer, thermodynamic from solid

// worked examples, solubility thermodynamic included
C[C@@H]1CN(c2ccc([N+](=O)[O-])c3ncccc23)C[C@H](C(=O)NCC2CN(C)CCO2)O1 (stereo partly drawn) ... > 530 µg/mL
C[C@@H]1CN(c2ccc(Cl)c3ncccc23)C[C@H](C(=O)NCC2CN(C)CCO2)O1 (stereo partly drawn) ... > 520 µg/mL
C[C@@H]1CN(c2ccc(C(F)(F)F)c3ncccc23)C[C@H](C(=O)NCC2CN(C)CCO2)O1 (stereo partly drawn) ... > 690 µg/mL
C[C@@H]1CN(c2ccc(I)c3ncccc23)C[C@H](C(=O)NCC2CN(C)CCO2)O1 (stereo partly drawn) ... > 625 µg/mL
C[C@@H]1CN(c2ccc(C(F)(F)F)c3ncccc23)C[C@H](C(=O)NCC(C)(C)N)O1 ... > 640 µg/mL

// field: solubility thermodynamic; key: C[C@@H]1CN(c2ccc(Cl)c3ncccc23)C[C@H](C(=O)NC2CCCNCC2)O1 (stereo partly drawn) ; value = > 470 µg/mL

// field: solubility thermodynamic; key: Cc1ccc(N2C[C@@H](C)O[C@@H](C(=O)NCC3CN(C)CCO3)C2)c2cccnc12 (stereo partly drawn) ; value = > 485 µg/mL

// field: solubility thermodynamic; key: C[C@@H]1CN(c2ccc(C(F)(F)F)c3ncccc23)C[C@H](C(=O)NC2CC3CNCC32)O1 (single isomer, unassigned) [Example 49A] ; value = > 660 µg/mL

// field: solubility thermodynamic; key: C[C@@H]1CN(c2ccc(C(F)(F)F)c3ncccc23)C[C@H](C(=O)NC2CC3CCC(C2)N3)O1 (single isomer, unassigned) [Example 47A] ; value = > 620 µg/mL

// field: solubility thermodynamic; key: C[C@@H]1CN(c2ccc(C(F)(F)F)c3ncccc23)C[C@H](C(=O)NC2C3CNCC2COC3)O1 (single isomer, unassigned) [Example 46A] ; value = > 650 µg/mL

// field: solubility thermodynamic; key: C[C@@H]1CN(c2ccc(C(F)(F)F)c3ncccc23)C[C@H](C(=O)NCC2COCCN2C)O1 (stereo partly drawn) ; value = > 740 µg/mL

// field: solubility thermodynamic; key: "C[C@@H]1CN(c2ccc(C(F)(F)F)c3ncccc23)C[C@H](C(=O)NC2CCN(C)CC2)O1" ; value = > 655 µg/mL
